- TARGET_UNDER_TEST: SARS-COV-2 RBD extracellular domain expressed with a C-terminal myc-myc-hexahistidine tag (SARS-COV-2 RBD-mmH) (SARS-CoV-2)
- ASSAY_NOTES: SPR Biacore, mAb captured on anti-hFc, RBD-mmH analyte, 37 C
Would you kindly list koff for each of these binders?
Answers are plain numbers, in s⁻¹.

Observe how each entry below is paired with its result.
BINDER: mAb14312 (antibody, V domains shown) VH: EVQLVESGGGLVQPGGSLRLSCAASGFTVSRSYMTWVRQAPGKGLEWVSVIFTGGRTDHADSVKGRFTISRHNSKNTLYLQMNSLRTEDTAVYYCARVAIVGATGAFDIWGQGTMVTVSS VL: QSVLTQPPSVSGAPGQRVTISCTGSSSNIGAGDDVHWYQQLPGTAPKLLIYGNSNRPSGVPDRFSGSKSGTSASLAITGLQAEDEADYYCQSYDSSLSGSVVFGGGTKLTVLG
koff [s⁻¹]: 0.000988

BINDER: mAb14247 (antibody, V domains shown) VH: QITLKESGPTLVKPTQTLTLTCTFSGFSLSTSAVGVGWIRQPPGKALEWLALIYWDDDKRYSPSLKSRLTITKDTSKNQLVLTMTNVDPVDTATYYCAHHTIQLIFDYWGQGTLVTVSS VL: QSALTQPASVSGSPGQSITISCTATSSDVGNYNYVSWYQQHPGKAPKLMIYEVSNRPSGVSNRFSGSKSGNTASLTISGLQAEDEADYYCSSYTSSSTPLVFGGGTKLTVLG
koff [s⁻¹]: 0.00163

BINDER: mAb14283 (antibody, V domains shown) VH: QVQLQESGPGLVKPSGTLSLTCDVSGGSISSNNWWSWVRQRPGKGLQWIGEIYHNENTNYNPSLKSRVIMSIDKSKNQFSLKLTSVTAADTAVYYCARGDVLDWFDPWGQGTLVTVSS VL: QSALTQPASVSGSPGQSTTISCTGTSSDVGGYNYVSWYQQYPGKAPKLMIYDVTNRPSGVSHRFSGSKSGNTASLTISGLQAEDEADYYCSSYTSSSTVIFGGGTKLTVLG
koff [s⁻¹]: 0.00179

BINDER: mAb15163 (antibody, V domains shown) VH: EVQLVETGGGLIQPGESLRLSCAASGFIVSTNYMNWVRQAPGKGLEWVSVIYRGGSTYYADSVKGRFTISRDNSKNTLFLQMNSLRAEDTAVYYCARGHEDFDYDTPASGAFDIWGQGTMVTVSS VL: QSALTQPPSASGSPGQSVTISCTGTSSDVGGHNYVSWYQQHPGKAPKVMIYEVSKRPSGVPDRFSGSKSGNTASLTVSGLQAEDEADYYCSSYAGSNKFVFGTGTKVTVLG
koff [s⁻¹]: 0.000387

Lookup result for mAb14289 (antibody, V domains shown) VH: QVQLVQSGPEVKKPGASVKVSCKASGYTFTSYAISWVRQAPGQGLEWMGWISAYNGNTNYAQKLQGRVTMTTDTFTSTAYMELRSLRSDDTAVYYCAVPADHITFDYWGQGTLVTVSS VL: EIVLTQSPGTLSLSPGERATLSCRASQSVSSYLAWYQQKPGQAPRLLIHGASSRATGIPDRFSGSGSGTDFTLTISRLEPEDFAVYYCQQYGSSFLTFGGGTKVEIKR ; measured koff: 0.00176
